# TARGET_ENTITY: human KDR (VEGFR2) on cells (human, UniProt P35968 20-1356); note: test concentration or dose not given here
# Sequence (P35968 20-1356): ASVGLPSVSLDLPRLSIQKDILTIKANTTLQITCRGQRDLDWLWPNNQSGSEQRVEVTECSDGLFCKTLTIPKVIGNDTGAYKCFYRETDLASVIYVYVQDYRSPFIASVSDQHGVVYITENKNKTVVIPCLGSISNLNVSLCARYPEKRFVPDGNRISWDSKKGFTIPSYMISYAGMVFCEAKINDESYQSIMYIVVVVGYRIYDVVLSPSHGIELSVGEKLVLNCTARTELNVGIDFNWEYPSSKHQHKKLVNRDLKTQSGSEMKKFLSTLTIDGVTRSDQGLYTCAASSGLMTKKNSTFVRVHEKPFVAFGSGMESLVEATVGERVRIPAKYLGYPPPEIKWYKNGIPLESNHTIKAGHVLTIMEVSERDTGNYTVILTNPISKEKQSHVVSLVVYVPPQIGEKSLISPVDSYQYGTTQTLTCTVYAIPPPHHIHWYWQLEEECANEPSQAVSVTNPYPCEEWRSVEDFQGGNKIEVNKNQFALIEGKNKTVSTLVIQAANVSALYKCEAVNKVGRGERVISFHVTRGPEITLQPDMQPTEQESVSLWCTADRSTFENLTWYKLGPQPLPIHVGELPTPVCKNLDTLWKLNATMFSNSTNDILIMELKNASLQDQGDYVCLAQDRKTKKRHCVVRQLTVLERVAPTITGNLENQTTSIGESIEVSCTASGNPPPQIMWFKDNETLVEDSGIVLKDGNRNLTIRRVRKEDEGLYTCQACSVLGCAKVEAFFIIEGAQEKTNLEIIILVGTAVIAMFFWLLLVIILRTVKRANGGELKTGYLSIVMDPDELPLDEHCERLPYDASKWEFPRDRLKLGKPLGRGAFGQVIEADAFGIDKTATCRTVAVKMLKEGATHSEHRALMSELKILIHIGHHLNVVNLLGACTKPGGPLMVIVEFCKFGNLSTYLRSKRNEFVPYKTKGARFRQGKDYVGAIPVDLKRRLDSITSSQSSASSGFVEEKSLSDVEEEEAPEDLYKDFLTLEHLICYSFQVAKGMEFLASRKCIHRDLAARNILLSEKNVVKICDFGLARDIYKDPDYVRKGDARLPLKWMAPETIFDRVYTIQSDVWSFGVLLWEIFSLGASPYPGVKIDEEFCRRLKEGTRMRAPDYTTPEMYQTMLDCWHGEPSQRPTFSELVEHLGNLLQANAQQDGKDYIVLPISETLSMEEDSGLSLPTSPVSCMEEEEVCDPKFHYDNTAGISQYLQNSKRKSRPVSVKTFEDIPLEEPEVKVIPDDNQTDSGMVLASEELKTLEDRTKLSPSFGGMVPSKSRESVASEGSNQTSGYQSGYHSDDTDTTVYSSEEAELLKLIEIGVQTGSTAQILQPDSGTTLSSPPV
# METHOD_SUMMARY: cell-based or functional assay
VALUE_KIND: % Inhibition of VEGF-E-mediated pTyr Activity

Using the record for anti-KDR monoclonal antibody 21H9 (antibody, V domains shown, Fully human mAb from XenoMouse (IgG2 or IgG4 strain); hybridoma supernatant) VH: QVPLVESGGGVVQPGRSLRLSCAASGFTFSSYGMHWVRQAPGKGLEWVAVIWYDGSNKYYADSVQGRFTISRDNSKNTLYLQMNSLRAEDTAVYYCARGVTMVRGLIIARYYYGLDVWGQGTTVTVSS VL: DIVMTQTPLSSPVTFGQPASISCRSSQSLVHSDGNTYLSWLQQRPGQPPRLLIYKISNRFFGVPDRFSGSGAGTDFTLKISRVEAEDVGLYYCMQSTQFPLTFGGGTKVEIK , report its % Inhibition of VEGF-E-mediated pTyr Activity.
6%

Using the record for anti-KDR monoclonal antibody 1G6 (antibody, V domains shown, Fully human mAb from XenoMouse (IgG2 or IgG4 strain); tested here as hybridoma supernatant) VH: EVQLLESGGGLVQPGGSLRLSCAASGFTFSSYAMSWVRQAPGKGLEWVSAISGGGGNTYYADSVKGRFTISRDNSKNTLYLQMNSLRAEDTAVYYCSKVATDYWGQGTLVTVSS VL: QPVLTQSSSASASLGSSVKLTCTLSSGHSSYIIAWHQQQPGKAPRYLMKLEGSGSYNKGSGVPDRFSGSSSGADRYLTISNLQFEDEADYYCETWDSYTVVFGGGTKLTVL , report its % Inhibition of VEGF-E-mediated pTyr Activity.
24%

Using the record for anti-KDR monoclonal antibody 24B3 (antibody, V domains shown, Fully human mAb from XenoMouse (IgG2 or IgG4 strain); hybridoma supernatant) VH: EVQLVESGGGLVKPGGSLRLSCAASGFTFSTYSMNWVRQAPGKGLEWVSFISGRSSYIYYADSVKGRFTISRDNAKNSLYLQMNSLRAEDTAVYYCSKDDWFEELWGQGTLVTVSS VL: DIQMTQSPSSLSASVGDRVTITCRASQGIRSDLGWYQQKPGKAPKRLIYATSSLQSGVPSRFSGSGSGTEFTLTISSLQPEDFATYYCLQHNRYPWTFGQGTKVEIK , report its % Inhibition of VEGF-E-mediated pTyr Activity.
40%
